The reported measurements were obtained from ChEMBL document CHEMBL4602614.

Assay system Acetylcholinesterase (Homo sapiens); read-out recorded as pIC50.
Lab note — pIC50 values are minus log10 of concentrations in M.

>>> print(df.to_string())
                                   compound  value
0  O=[N+]([O-])C1C(Cc2c[nH]cn2)NC2(c3ccccc3-c3nc4ccccc4nc32)C1c1ccc(Cl)cc1 (stereo not drawn)   4.74
1  COc1ccc(C2C([N+](=O)[O-])C(Cc3c[nH]cn3)NC23c2ccccc2-c2nc4ccccc4nc23)cc1 (stereo not drawn)   5.69
2  Cc1ccc(C2C([N+](=O)[O-])C(Cc3c[nH]cn3)NC23c2ccccc2-c2nc4ccccc4nc23)cc1 (stereo not drawn)   5.69
3  O=[N+]([O-])C1C(Cc2c[nH]cn2)NC2(c3ccccc3-c3nc4ccccc4nc32)C1c1ccccn1 (stereo not drawn)   4.77
4  O=[N+]([O-])C1C(Cc2c[nH]cn2)NC2(c3ccccc3-c3nc4ccccc4nc32)C1c1ccc(Br)cc1 (stereo not drawn)   4.79

Value (pIC50, Acetylcholinesterase (Homo sapiens)) for record O=[N+]([O-])C1C(Cc2c[nH]cn2)NC2(c3ccccc3-c3nc4ccccc4nc32)C1c1ccco1 (stereo not drawn) = 4.85

Value (pIC50, Acetylcholinesterase (Homo sapiens)) for record COc1cccc(C2C([N+](=O)[O-])C(Cc3c[nH]cn3)NC23c2ccccc2-c2nc4ccccc4nc23)c1 (stereo not drawn) = 5.04

Value (pIC50, Acetylcholinesterase (Homo sapiens)) for record Cc1cccc(C2C([N+](=O)[O-])C(Cc3c[nH]cn3)NC23c2ccccc2-c2nc4ccccc4nc23)c1 (stereo not drawn) = 5.11

###

Target desc: Acetylcholinesterase (Homo sapiens)
Sequence (P22303 whole entry): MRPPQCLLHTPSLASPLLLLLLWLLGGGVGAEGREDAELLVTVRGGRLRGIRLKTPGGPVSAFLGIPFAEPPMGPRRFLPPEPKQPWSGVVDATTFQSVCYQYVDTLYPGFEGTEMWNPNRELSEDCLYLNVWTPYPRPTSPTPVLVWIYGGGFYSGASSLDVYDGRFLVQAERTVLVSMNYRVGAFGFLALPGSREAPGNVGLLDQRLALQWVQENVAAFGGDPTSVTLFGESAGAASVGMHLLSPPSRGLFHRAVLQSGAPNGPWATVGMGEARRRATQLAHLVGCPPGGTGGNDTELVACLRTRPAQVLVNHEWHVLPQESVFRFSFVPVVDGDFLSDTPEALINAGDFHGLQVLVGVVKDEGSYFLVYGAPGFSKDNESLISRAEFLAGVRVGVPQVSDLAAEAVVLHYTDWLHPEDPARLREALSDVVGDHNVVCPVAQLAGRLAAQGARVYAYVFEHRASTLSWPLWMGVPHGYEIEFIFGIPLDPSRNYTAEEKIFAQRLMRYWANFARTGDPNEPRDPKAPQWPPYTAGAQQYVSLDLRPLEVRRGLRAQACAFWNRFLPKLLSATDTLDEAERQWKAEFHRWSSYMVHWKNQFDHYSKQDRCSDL
Readout kind: IC50 (µM)
Enter your answer as a number in µM; do not include the unit.

                                   compound                          target_desc  readout_kind  unit_label  value
0  O=[N+]([O-])C1C(Cc2c[nH]cn2)NC2(c3ccccc3-c3nc4ccccc4nc32)C1c1ccccc1 (stereo not drawn)  Acetylcholinesterase (Homo sapiens)          IC50          µM   11.8

Value (IC50, Acetylcholinesterase (Homo sapiens)) for record Cc1ccccc1C1C([N+](=O)[O-])C(Cc2c[nH]cn2)NC12c1ccccc1-c1nc3ccccc3nc12 (stereo not drawn) = 10

Value (IC50, Acetylcholinesterase (Homo sapiens)) for record COc1ccccc1C1C([N+](=O)[O-])C(Cc2c[nH]cn2)NC12c1ccccc1-c1nc3ccccc3nc12 (stereo not drawn) = 5.22

###

IC50 values for the compounds below.
Target desc: Cholinesterase (Homo sapiens, UniProt P06276)
Sequence (P06276 whole entry): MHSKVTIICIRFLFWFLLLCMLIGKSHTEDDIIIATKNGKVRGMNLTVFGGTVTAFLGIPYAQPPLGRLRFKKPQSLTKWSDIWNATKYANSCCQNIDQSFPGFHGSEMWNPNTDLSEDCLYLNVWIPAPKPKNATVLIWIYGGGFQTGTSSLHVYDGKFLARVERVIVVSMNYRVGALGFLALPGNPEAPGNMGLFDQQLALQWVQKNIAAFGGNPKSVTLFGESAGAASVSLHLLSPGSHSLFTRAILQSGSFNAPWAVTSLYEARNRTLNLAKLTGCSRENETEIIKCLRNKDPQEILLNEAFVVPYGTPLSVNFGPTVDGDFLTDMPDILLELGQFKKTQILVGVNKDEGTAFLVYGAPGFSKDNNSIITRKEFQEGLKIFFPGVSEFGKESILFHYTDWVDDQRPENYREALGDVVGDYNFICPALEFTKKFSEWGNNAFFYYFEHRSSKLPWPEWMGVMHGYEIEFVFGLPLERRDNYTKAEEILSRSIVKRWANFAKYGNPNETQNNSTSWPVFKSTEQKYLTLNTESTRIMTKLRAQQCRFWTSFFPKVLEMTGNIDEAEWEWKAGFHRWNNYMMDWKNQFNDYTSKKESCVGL
Enter your answer as a number in µM; do not include the unit.

In [3]: df
Out[3]:
                                   compound  value
0  O=[N+]([O-])C1C(Cc2c[nH]cn2)NC2(c3ccccc3-c3nc4ccccc4nc32)C1c1ccc(Cl)cc1 (configuration not stated)   21.6
1  O=[N+]([O-])C1C(Cc2c[nH]cn2)NC2(c3ccccc3-c3nc4ccccc4nc32)C1c1ccc(Br)cc1 (configuration not stated)   26.6

Value (IC50, Cholinesterase (Homo sapiens, UniProt P06276)) for record O=[N+]([O-])C1C(Cc2c[nH]cn2)NC2(c3ccccc3-c3nc4ccccc4nc32)C1c1ccco1 (configuration not stated) = 22.3

Value (IC50, Cholinesterase (Homo sapiens, UniProt P06276)) for record COc1ccc(C2C([N+](=O)[O-])C(Cc3c[nH]cn3)NC23c2ccccc2-c2nc4ccccc4nc23)cc1 (configuration not stated) = 11.5

Value (IC50, Cholinesterase (Homo sapiens, UniProt P06276)) for record Cc1ccccc1C1C([N+](=O)[O-])C(Cc2c[nH]cn2)NC12c1ccccc1-c1nc3ccccc3nc12 (configuration not stated) = 13.8

Value (IC50, Cholinesterase (Homo sapiens, UniProt P06276)) for record O=[N+]([O-])C1C(Cc2c[nH]cn2)NC2(c3ccccc3-c3nc4ccccc4nc32)C1c1ccccc1 (configuration not stated) = 15.6

Value (IC50, Cholinesterase (Homo sapiens, UniProt P06276)) for record COc1ccccc1C1C([N+](=O)[O-])C(Cc2c[nH]cn2)NC12c1ccccc1-c1nc3ccccc3nc12 (configuration not stated) = 14.2

###

Assay system Cholinesterase (Homo sapiens); read-out recorded as pIC50.
Lab note — pIC50 values are minus log10 of concentrations in M.

# annotated cases, reported pIC50 shown
>>> print(df.to_string())
                                   compound  readout_kind  value
0  O=[N+]([O-])C1C(Cc2c[nH]cn2)NC2(c3ccccc3-c3nc4ccccc4nc32)C1c1ccccn1 (centres undefined)         pIC50   4.62
1  COc1cccc(C2C([N+](=O)[O-])C(Cc3c[nH]cn3)NC23c2ccccc2-c2nc4ccccc4nc23)c1 (centres undefined)         pIC50   4.83
2  Cc1ccc(C2C([N+](=O)[O-])C(Cc3c[nH]cn3)NC23c2ccccc2-c2nc4ccccc4nc23)cc1 (centres undefined)         pIC50   4.91

Now look at this entry.
Looking up Cc1cccc(C2C([N+](=O)[O-])C(Cc3c[nH]cn3)NC23c2ccccc2-c2nc4ccccc4nc23)c1 (centres undefined) , I found its pIC50 recorded as 4.87
